biological target: Bile salt export pump (Homo sapiens, UniProt O95342); assay: Inhibition of human BSEP expressed in fall armyworm sf9 cell plasma membrane vesicles assessed as reduction in vesicle-associated [3H]-taurocholate transport preincubated for 10 mins prior to ATP addition measured after 15 mins in presence of [3H]-taurocholate by topcount based membrane vesicle transport assay; type: ADME
Here, each record is paired with measured IC50 data.

Look over these answered cases.
compound	IC50
CO[C@H]1/C=C/O[C@@]2(C)Oc3c(C)c(O)c4c(O)c(c(/C=N/N5CCN(C)CC5)c(O)c4c3C2=O)NC(=O)/C(C)=C\C=C\[C@H](C)[C@H](O)[C@@H](C)[C@@H](O)[C@@H](C)[C@H](OC(C)=O)[C@@H]1C [RIFAMPIN]	25.3 µM
CC1Cc2ccccc2N1NC(=O)c1ccc(Cl)c(S(N)(=O)=O)c1 (stereo not drawn) [INDAPAMIDE]	> 135 µM

API: the following record is the query input.
So for O=c1n(CCCN2CCN(c3cccc(Cl)c3)CC2)nc2ccccn12 [TRAZODONE] , the logged IC50 turned out to be > 135 µM
